# testTarget: T1, AFP158/HLA-A*02:01 complex (human)
# T1 construct: biotinylated on the BSP by BirA for ELISA and panning; also called biotinylated AFP158/HLA-A*02:01 complex; Bio-AFP158
# assayMethodText: SPR, scFv-mIgG2aFc from supernatant captured, complex as analyte
Consider the following binders and their measured koff readings.
The reply should read as a number followed by its unit.

Some entries whose results are on file:
1. AS170036 VL2VH1 scFv-mIgG2aFc (Fc fusion, not shown: a dimerising Fc or GST) scFv: QSALTQPRSVSGSPGQSVTISCAGTSSDVGSENYVSWYQQHPGKAPKLLIYQVNKRASGIPDRFSGSKSGNTASLTISGLQAEDEADYYCASYRSSDHNIVFGGGTKLTVLGGGGSGGGGSGGGGSEVQLVESGGGLVQPGGSLRLSCAASGFTFSSYAMSWVRQAPGKGLEWVSTINSGTGSPYYADSVKGRFTISRDNSKNTLYLQMNSLRAEDTAVYYCAKNFFDGSWFLGPPAMDYWGQGTLVTVSS    0.095 s⁻¹
2. AS170036 VL2VH2 scFv-mIgG2aFc (Fc fusion, not shown: a dimerising Fc or GST) scFv: QSALTQPRSVSGSPGQSVTISCAGTSSDVGSENYVSWYQQHPGKAPKLLIYQVNKRASGIPDRFSGSKSGNTASLTISGLQAEDEADYYCASYRSSDHNIVFGGGTKLTVLGGGGSGGGGSGGGGSEVQLVESGGGLVQPGGSLRLSCTASGFTFSSYAMSWVRQAPGKGLEWVSTINSGTGSPYYADSVKGRFTISRDNSKNTLYLQMNSLRAEDTAMYYCAKNFFDGSWFLGPPAMDYWGQGTLVTVSS    0.072 s⁻¹

# input for lookup
Identify the reported koff for the following entry. AS170036 scFv-mIgG2aFc (Fc fusion, not shown: a dimerising Fc or GST, Camel scFv) QLVLTQPSSVSGTPGQTVTISCAGTSSDVGSENYVSWYRQLPGTAPKLLIYQVNKRASGIADRFSGSKSGNTASMTISGLQSADEADYYCASYRSSDHNIVFGGGTHLTVLGGGGSGGGGSGGGGSAVQLVESGGGLVQPGGSLRLSCTASGFTFSSYAMSWVRQAPGKGLEWVSTINSGTGSPYYADSVKGRFTISRDNAKNTLYLQLNSLKTEDTAMYYCAKNFFDGSWFLGPPAMDYWGKGTLVTISS
0.19 s⁻¹

All figures here come from patent US20240279318A1.
